biological target: peroxidase-anti-peroxidase (PAP) immune complex (preformed immune complex of peroxidase and anti-peroxidase IgG); assay: reverse ELISA, competition: pre-incubated with PAP, then FcγIII-coated plate (competitor: FcγIII); lower = more inhibition
Positions of bridges follow the written chain, without caps; N, C: chain ends. No end group written: not given here.
experimental.readout: OD 450 nm (OD)

Field: example entries. Status: answers known.
DCARHLGELVWCT (disulfide 2-12 (inferred)) [… peptide (SEQ ID NO:4)] ... 2.53
DCAWHLGELAACT (cyclized by a disulfide bond between the two cysteine residues) [… peptide (SEQ ID NO:42)] ... 1.34

[P] DCAAHLGELAACT (cyclized by a disulfide bond between the two cysteine residues) [… peptide (SEQ ID NO:40)]
[Q] PCARHLGELVWCT (disulfide 2-12 (inferred)) [… peptide (SEQ ID NO:41)]
[R] RCARHLGELVWCT (disulfide 2-12 (inferred)) [… peptide (SEQ ID NO:5)]
Exercise: Ranking field: OD 450 nm; order: falling. Give the order by naming the labels one after another as requested.
Solution: R, P, Q
